target: peroxidase-anti-peroxidase (PAP) immune complexes (UniProt P00433); experiment: reverse ELISA: PAP pre-incubated with peptide; competitor: immobilised FcγIIa
Sequence (P00433 31-338, one chain of several): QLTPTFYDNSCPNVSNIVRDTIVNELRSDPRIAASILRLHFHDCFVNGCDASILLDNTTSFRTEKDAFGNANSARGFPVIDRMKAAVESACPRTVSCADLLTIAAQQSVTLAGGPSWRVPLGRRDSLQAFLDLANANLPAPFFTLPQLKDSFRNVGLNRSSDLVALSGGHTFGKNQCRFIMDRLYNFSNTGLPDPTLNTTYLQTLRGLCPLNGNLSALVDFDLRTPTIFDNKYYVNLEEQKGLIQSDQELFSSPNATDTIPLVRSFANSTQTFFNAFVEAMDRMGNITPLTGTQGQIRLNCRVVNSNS
Positions of bridges follow the written chain, without caps; N, C: chain ends. No end group written: not given here.
MEASUREMENT KIND: OD 450 nm (OD)

These recorded examples may help you get a feel for the data.
DCAAHLGELAACT (cyclized by a disulfide bond between the two cysteine residues) [… (SEQ ID NO:40)]: 2.43
RCARHLGELVWCT (disulfide 2-12 (inferred)) [… (SEQ ID NO:5)]: 3.4
PCARHLGELVWCT (disulfide 2-12 (inferred)) [… (SEQ ID NO:41)]: 1.15

(1) DCAWHLGELAACT (cyclized by a disulfide bond between the two cysteine residues) [… (SEQ ID NO:42)]
(2) DCARHLGELVWCT (disulfide 2-12 (inferred)) [… (SEQ ID NO:4)]
(Q) Would you kindly point out which of 1 and 2 has the smaller OD 450 nm figure? Mark your answer with the label of the selected entry.
(A) 1
(1: 1.48 OD, 2: 2.54 OD)
